Target: human VDR (Homo sapiens)
Construct: expressed in transfected cells; host or cells: HOS cells (human osteosarcoma, ATCC), pcDNA3 expression vector, Lipofectamine 2000
Sequence (P11473 1-427): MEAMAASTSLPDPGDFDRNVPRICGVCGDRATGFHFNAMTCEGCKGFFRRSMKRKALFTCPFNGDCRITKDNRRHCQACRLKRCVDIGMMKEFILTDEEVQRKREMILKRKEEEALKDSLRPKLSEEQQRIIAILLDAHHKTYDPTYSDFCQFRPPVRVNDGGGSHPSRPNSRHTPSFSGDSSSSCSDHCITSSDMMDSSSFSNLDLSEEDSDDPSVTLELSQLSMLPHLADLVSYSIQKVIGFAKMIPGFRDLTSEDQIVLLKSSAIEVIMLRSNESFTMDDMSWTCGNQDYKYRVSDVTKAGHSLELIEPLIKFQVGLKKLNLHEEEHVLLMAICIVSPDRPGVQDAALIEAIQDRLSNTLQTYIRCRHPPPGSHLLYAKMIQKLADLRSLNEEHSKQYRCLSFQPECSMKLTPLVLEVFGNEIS
Test: Vitamin D3 receptor-antagonist activity: human osteocalcin promoter luciferase reporter in HOS cells transfected with human VDR and human RXR
Type: cell-based
Settings: IC50 of test compound with respect to IC50 of TEI-9647 in each experiment
Catalogue of compounds with associated Antagonist specific activity against TEI-9647 (%)
endpoint: Antagonist specific activity against TEI-9647 (%)

>  <compound>
C=C1/C(=C\C=C2/CCC[C@]3(C)[C@@H]([C@H](C)C[C@H]4C[C@](C)(O)C(=O)N4CCc4ccccc4)CC[C@@H]23)C[C@@H](O)[C@H](CCCO)[C@@H]1O [Compound No. 12a]

>  <reportedValue>
143.1

$$$$
>  <compound>
C=C1/C(=C\C=C2/CCC[C@]3(C)[C@@H]([C@H](C)CC4CC(C)(O)C(=O)N4Cc4cc(OCC)cc(OCC)c4)CC[C@@H]23)C[C@@H](O)[C@H](C)[C@@H]1O (single isomer, unassigned) [Compound No. 41c]

>  <reportedValue>
17.8

$$$$
>  <compound>
C=C1/C(=C\C=C2/CCC[C@@]3(C)C2CC[C@@H]3[C@H](C)CC2CC(C)(O)C(=O)N2Cc2cc(OCC)cc(OCC)c2)C[C@@H](O)[C@H](CCCO)[C@@H]1O (stereo partly drawn) [Compound No. 42c]

>  <reportedValue>
6.1

$$$$

====

tested on: HL-60 cells; test: Vitamin D3 receptor-antagonist effect: inhibition of 1α,25-dihydroxyvitamin D3-induced differentiation of HL-60 (NBT reduction activity); assay type: cell-based; conditions: Homo sapiens, 96 h; NBT-positive HL-60 cells, co-treatment with 1α,25-dihydroxyvitamin D3 1×10^−8 M, 4 days

>  <compound>
C=C1/C(=C\C=C2/CCC[C@]3(C)[C@@H]([C@H](C)C[C@H]4C[C@](C)(O)C(=O)N4CCc4ccccc4)CC[C@@H]23)C[C@@H](O)[C@H](CCCO)[C@@H]1O [Compound No. 12a]

>  <unitSpec>
nM

>  <IC50>
10

$$$$
>  <compound>
C=C1/C(=C\C=C2/CCC[C@]3(C)[C@@H]([C@H](C)CC4CC(C)(O)C(=O)N4CCc4ccccc4)CC[C@@H]23)C[C@@H](O)[C@H](C)[C@@H]1O (stereo partly shown) [Compound No. 11a]

>  <unitSpec>
nM

>  <IC50>
16

$$$$
>  <compound>
C=C1/C(=C\C=C2/CCC[C@]3(C)[C@@H]([C@H](C)CC4CC(C)(O)C(=O)N4CCc4ccccc4)CC[C@@H]23)C[C@@H](O)[C@H](CCCO)[C@@H]1O (stereo partly shown) [Compound No. 12b]

>  <unitSpec>
nM

>  <IC50>
170

$$$$
>  <compound>
C=C1/C(=C\C=C2/CCC[C@]3(C)[C@@H]([C@H](C)C[C@H]4C[C@](C)(O)C(=O)N4CCc4ccccc4)CC[C@@H]23)C[C@@H](O)[C@H](OCCCO)[C@@H]1O [Compound No. 13a]

>  <unitSpec>
nM

>  <IC50>
52

$$$$
